- experimental_protocol: Partition coefficient (logP)
- Type: physicochemical
- test_conditions: octanol/water
readout_name: logP
Would you mind answering with just the numeric figure?

C[C@]12CC[C@@H]3c4ccc(O)cc4C[C@@H](CCCCCCNC(=O)CCCc4ccc(N(CCCl)CCCl)cc4)[C@H]3[C@@H]1CC[C@@H]2O 5.07
C[C@]12CC[C@@H]3c4ccc(O)cc4C[C@@H](CCCCCC/N=C(/N)NCCCc4ccc(N(CCCl)CCCl)cc4)[C@H]3[C@@H]1CC[C@@H]2O 5.67
C[C@]12CC[C@@H]3c4ccc(O)cc4C[C@@H](CCCCCCOC(=O)NCCCc4ccc(N(CCCl)CCCl)cc4)[C@H]3[C@@H]1CC[C@@H]2O 5.61
C[C@]12CC[C@@H]3c4ccc(O)cc4C[C@@H](CCCCCCNCCCCNCCCCc4ccc(N(CCCl)CCCl)cc4)[C@H]3[C@@H]1CC[C@@H]2O 5.32
C[C@]12CC[C@@H]3c4ccc(O)cc4C[C@@H](CCCCCCNC(=O)CCCNC(=O)CCCc4ccc(N(CCCl)CCCl)cc4)[C@H]3[C@@H]1CC[C@@H]2O 4.85
C[C@]12CC[C@@H]3c4ccc(O)cc4C[C@@H](CCCCCCNCCCCc4ccc(N(CCCl)CCCl)cc4)[C@H]3[C@@H]1CC[C@@H]2O 5.96
C[C@]12CC[C@@H]3c4ccc(O)cc4C[C@@H](CCCCCCNCCOC(=O)NCCCc4ccc(N(CCCl)CCCl)cc4)[C@H]3[C@@H]1CC[C@@H]2O 5.32

Next, consider the following compound.
Dear colleague, I am looking for the recorded logP of the following compound: C[C@]12CC[C@@H]3c4ccc(O)cc4C[C@@H](CCCCCCNCC/N=C(/N)NCCCc4ccc(N(CCCl)CCCl)cc4)[C@H]3[C@@H]1CC[C@@H]2O
6.27

FYI, the data here is from ChEMBL document CHEMBL1146816.
